experimentalTarget: UniProt Q05397
Sequence (Q05397 whole entry): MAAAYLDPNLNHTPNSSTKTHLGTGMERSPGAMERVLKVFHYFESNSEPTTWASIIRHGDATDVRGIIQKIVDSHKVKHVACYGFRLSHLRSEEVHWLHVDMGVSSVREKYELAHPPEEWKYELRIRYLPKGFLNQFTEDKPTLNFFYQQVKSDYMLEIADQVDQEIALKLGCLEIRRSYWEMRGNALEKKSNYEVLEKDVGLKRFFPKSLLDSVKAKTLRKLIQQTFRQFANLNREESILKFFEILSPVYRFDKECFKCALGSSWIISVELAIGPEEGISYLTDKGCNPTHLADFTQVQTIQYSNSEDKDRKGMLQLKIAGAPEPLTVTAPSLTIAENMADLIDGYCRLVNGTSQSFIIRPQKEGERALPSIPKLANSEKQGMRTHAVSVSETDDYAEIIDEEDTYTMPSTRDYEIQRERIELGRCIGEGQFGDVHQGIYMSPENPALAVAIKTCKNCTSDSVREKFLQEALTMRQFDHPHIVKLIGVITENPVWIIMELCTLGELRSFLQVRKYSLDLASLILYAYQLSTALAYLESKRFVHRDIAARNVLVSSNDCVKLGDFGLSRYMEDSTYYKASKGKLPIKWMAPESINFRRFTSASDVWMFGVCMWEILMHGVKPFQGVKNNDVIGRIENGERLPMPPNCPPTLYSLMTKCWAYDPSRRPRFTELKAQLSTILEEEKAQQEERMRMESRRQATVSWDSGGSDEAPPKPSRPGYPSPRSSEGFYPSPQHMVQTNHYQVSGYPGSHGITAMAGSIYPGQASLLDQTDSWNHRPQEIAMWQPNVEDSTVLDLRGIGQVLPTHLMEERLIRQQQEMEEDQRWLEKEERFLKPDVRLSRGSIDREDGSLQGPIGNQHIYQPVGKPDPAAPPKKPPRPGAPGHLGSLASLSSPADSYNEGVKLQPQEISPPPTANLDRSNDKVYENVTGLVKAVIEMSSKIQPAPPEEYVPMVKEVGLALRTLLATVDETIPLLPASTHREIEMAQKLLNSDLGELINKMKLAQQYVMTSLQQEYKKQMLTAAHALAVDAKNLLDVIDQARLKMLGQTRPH
methodSummary: biochemical
pIC50: −log10 of the molar value.
readoutLabel: pIC50

Some solved cases for reference:
compound	pIC50
CN(c1ncccc1CNc1nc(Nc2ccc(P3(=O)OCC(C)(C)CO3)cc2)ncc1C(F)(F)F)S(C)(=O)=O	> 6.00
CN(c1ncccc1CNc1nc(Nc2ccc(P(C)(C)=O)cc2)ncc1C(F)(F)F)S(C)(=O)=O	> 6.00
CCOP(C)(=O)Cc1ccc(Nc2ncc(C(F)(F)F)c(Nc3ccc(N4CCCC4)c4c3C(=O)N(C)C4)n2)cc1 (centres unmarked)	> 6.00
CCOP(=O)(O)Cc1ccc(Nc2ncc(C(F)(F)F)c(NCc3cccnc3N(C)S(C)(=O)=O)n2)cc1	> 6.00
CCOP(=O)(Cc1ccc(Nc2ncc(C(F)(F)F)c(Nc3ccc(C4CCN(C)CC4)c4c3C(=O)N(C)C4)n2)c(OC)c1)OCC	> 6.00

query: Which pIC50 value is on record for CNC(=O)c1ccccc1Nc1nc(Nc2ccc(CP(=O)(OCCOC)OCCOC)cc2OC)ncc1C(F)(F)F ?
result: > 6.00

query: And what about the compound CCOP(C)(=O)Cc1ccc(Nc2ncc(C(F)(F)F)c(Nc3ccccc3C(=O)NC)n2)c(OC)c1 (centres unmarked) ?
result: > 6.00

query: CCOP(=O)(CC)Cc1ccc(Nc2ncc(C(F)(F)F)c(Nc3ccc([C@H]4CC[C@H](O)CC4)c4c3C(=O)N(C)C4)n2)cc1 (some centres unmarked) ?
result: > 6.00

query: What about this compound? CCOC(=O)[C@H]1CC[C@H](c2ccc(Nc3nc(Nc4ccc(CP(=O)(OCC)OCC)cc4OC)ncc3C(F)(F)F)c3c2CN(C)C3=O)CC1
result: > 6.00

query: # repeat for CCOP(C)(=O)Cc1ccc(Nc2ncc(C(F)(F)F)c(Nc3ccc(N4CCC(O)C4)c4c3C(=O)N(C)C4)n2)cc1 (centres unmarked)
result: > 6.00

query: # repeat for CNC(=O)c1ccccc1Nc1nc(Nc2ccc(CP(=O)(OCCO)OCCO)cc2OC)ncc1C(F)(F)F
result: > 6.00

query: How about this compound: CCCOP(=O)(OCCC)c1cccc(Nc2ncc(C(F)(F)F)c(NCc3cccnc3N(C)S(C)(=O)=O)n2)c1
result: > 6.00

query: How about this compound: CCOP(=O)(Cc1ccc(Nc2ncc(C(F)(F)F)c(Nc3cccnc3C(=O)NC)n2)c(OC)c1)OCC
result: > 6.00

query: Please give the result for CCOP(=O)(Cc1ccc(Nc2ncc(C(F)(F)F)c(Nc3ccc([C@H]4CC[C@H](OCC)CC4)c4c3C(=O)N(C)C4)n2)cc1)OCC too.
result: > 6.00
